- TARGET_UNDER_TEST: DYRK1B (Homo sapiens, UniProt Q9Y463)
- Sequence (Q9Y463 whole entry, species assumed): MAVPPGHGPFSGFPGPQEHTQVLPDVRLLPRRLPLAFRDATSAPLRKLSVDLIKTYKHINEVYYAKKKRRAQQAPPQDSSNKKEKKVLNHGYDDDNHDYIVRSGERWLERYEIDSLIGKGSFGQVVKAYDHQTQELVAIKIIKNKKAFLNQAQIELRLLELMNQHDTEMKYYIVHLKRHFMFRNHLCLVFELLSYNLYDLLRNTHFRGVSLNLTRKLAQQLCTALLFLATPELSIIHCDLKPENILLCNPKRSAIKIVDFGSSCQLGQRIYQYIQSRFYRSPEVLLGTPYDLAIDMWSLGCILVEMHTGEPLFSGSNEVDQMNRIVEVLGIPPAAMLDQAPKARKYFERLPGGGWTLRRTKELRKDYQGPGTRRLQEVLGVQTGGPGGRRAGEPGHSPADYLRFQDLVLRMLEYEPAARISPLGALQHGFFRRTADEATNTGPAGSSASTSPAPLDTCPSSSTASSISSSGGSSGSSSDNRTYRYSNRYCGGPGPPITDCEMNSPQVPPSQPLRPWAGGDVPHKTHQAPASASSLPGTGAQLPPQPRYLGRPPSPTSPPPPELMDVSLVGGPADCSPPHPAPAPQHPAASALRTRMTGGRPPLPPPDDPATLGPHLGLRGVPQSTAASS
Entries and their measured Kd follow.

COMPOUND: Cc1nc2ccc(-c3ccnc(N)c3)nc2n1-c1ccc(N2CCN(CC#Cc3ccc(N4CCC(C(=O)N5CCC(n6cc(CNc7cccc8c7C(=O)N(C7CCC(=O)NC7=O)C8=O)cn6)CC5)CC4)nc3)CC2)c(F)c1 (centres unmarked)
TARGET_UNDER_TEST: DYRK1B (Homo sapiens, UniProt Q9Y463)
Kd: 10 to 100 nM

COMPOUND: Cc1ncsc1-c1ccc(CNC(=O)[C@@H]2C[C@@H](O)CN2C(=O)[C@@H](NC(=O)CCOCCOCCOCCOCCOCCN2CCN(c3ccc(-n4c(C)nc5ccc(-c6ccnc(N)c6)nc54)cc3F)CC2)C(C)(C)C)cc1
TARGET_UNDER_TEST: DYRK1B (Homo sapiens, UniProt Q9Y463)
Kd: < 10 nM

* * *

- TARGET_UNDER_TEST: DYRK1B (Homo sapiens, UniProt Q9Y463)
- Construct: purchased Eurofins; host or cells: E. coli BL21-derived (T7 phage display) or HEK-293
- TEST_DESCRIPTION: HiBiT split luciferase assay of targeted degradation of DYRK1B in Flp-In T-REx 293 cells
- Format: cell-based
- CONDITION_CONTEXT: 300 nM compound, 24 h, HiBiT-tagged DYRK1B in Flp-In T-REx 293 cells, normalized to vehicle; read-out: Relative Degradation at 300 nM DYRK1B

COMPOUND: Cc1nc2ccc(-c3ccnc(N)c3)nc2n1-c1ccc(N2CCN(CCOCCOCCOCCOCCNc3cccc4c3C(=O)N(C3CCC(=O)NC3=O)C4=O)CC2)c(F)c1 (centres unmarked)
TARGET_UNDER_TEST: DYRK1B (Homo sapiens, UniProt Q9Y463)
inhibition at 0.3 µM: 30 to 50%
--
COMPOUND: Cc1ncsc1-c1ccc(CNC(=O)[C@@H]2C[C@@H](O)CN2C(=O)[C@@H](NC(=O)CCOCCOCCN2CCN(c3ccc(-n4c(C)nc5ccc(-c6ccnc(N)c6)nc54)cc3F)CC2)C(C)(C)C)cc1
TARGET_UNDER_TEST: DYRK1B (Homo sapiens, UniProt Q9Y463)
inhibition at 0.3 µM: < 30%
--
COMPOUND: Cc1nc2ccc(-c3ccnc(N)c3)nc2n1-c1ccc(N2CCN(CCC#Cc3ccc(N4CCC(C(=O)N5CCC(n6cc(CNc7cccc8c7C(=O)N(C7CCC(=O)NC7=O)C8=O)cn6)CC5)CC4)nc3)CC2)c(F)c1 (centres unmarked)
TARGET_UNDER_TEST: DYRK1B (Homo sapiens, UniProt Q9Y463)
inhibition at 0.3 µM: > 50%
--
COMPOUND: Cc1nc2ccc(-c3ccnc(N)c3)nc2n1-c1ccc(N2CCN(CC#Cc3ccc(N4CCC(C(=O)N5CCC(n6cc(CNc7cccc8c7C(=O)N(C7CCC(=O)NC7=O)C8=O)cn6)CC5)CC4)nc3)CC2)c(C(F)(F)F)c1 (centres unmarked)
TARGET_UNDER_TEST: DYRK1B (Homo sapiens, UniProt Q9Y463)
inhibition at 0.3 µM: < 30%
--
COMPOUND: Cc1nc2ccc(-c3ccnc(N)c3)nc2n1-c1ccc(CN2CCN(CC#Cc3ccc(N4CCC(C(=O)N5CCC(n6cc(CNc7cccc8c7C(=O)N(C7CCC(=O)NC7=O)C8=O)cn6)CC5)CC4)nc3)CC2)cc1 (centres unmarked)
TARGET_UNDER_TEST: DYRK1B (Homo sapiens, UniProt Q9Y463)
inhibition at 0.3 µM: 30 to 50%
